- Assay method text: Compound was tested for its inhibitory activity against cathepsin L
Where a SMILES comes first, the peptide text is derived from it. The star is where a group is joined. Cbz = O=C(OCc1ccccc1)*
Measure: pIC50
Keep in mind that pIC50 stands for -log10 of concentration in molar terms.

Exercise: Data request, read-out pIC50, for O=C(N[C@@H](Cc1ccccc1)C(=O)N[C@@H](Cc1ccc(O)cc1)C(=O)O)OCc1ccccc1 (Cbz-Phe-Tyr-OH)
Solution: 9.07

Exercise: Endpoint output: pIC50 of CC(C)C[C@H](NC(=O)[C@H](Cc1ccccc1)NC(=O)OCc1ccccc1)C(=O)O (Cbz-Phe-Leu-OH) . Value?
Solution: 9.11

Exercise: // lookup pIC50 for COc1ccc(C[C@H](NC(=O)[C@H](Cc2ccccc2)NC(=O)OCc2ccccc2)C(=O)O)cc1 (Cbz-Phe-Tyr(Me)-OH)
Solution: 8.53

Exercise: Given the entry "C[C@H](NC(=O)[C@H](Cc1ccccc1)NC(=O)OCc1ccccc1)C(=O)O" , report its measured pIC50.
Solution: 7.81

Exercise: Give the measured pIC50 of "CC(=O)N[C@@H](CC(C)C)C(=O)N[C@@H](CC(C)C)C(=O)N[C@H](C=O)CCCNC(=N)N" .
Solution: 7.15

Exercise: GET /values?readout=pIC50&item= "CCCCOc1ccc(C[C@H](NC(=O)[C@H](Cc2ccccc2)NC(=O)OCc2ccccc2)C(=O)O)cc1"
Solution: 8.16

Exercise: Value lookup for pIC50; key = O=C(N[C@@H](Cc1ccccc1)C(=O)N[C@@H](Cc1ccccc1)C(=O)O)OCc1ccccc1 (Cbz-Phe-Phe-OH)
Solution: 9.13
